Recorded half-life values for a group of compounds are listed next.
Conditions: rat; liver microsomes; pH 7.4; 15.0 min; 1.0 µM
// units = min; emit number, no label

INSERT INTO measurements (line_notation, value) VALUES
  ('Cc1ccc(-c2cc(C(=O)NC3CCCCC3)c3ccccc3n2)cc1', 9.42),
  ('CCOc1ccc(CNc2ccc3c(c2)ncn3C)cc1', 21),
  ('O=C1Nc2ccc(C(=O)c3ccco3)cc2/C1=C/c1cc(Cl)c(O)c(Cl)c1', 7.7);

Prompt: Give its half-life value. Item: `Brc1ccc(-c2csc(N3CCOCC3)n2)cc1`
Completion: 2.48

Prompt: Also `CCS(=O)(=O)c1nc(-c2ccc(Cl)cc2)cc(C(F)(F)F)n1` ?
Completion: 5.7

* * *

Conditions: rat; liver microsomes; pH 7.4; 15.0 min; 1.0 µM
RECORDED_METRIC: half-life

Some compounds with recorded half-life:
INSERT INTO assay_data (compound, value) VALUES
  ('NC(=O)C1CCN(c2ncc(-c3ccc(Cl)cc3)s2)CC1', '5.97 min'),
  ('Cn1ncnc1[C@H]1c2n[nH]c(=O)c3cc(F)cc(c23)N[C@@H]1c1ccc(F)cc1', '> 30 min'),
  ('Cc1cc(F)ccc1-c1nc(NCCN=C(N)NC#N)nc2c1ccc(=O)n2-c1c(F)cccc1F', '5.23 min'),
  ('CN(C)c1ccccc1-c1csc(N2CCC(C(N)=O)CC2)n1', '9.95 min'),
  ('Fc1ccc(F)c(Nc2nc(-c3ccncc3)nc3ccccc23)c1', '10 min'),
  ('CCOc1ccc(CCNC(=O)c2cc3ccccc3n2CCN2CCOCC2)cc1OCC', '1.6 min');

Prompt: Give its half-life value. Item: `O=C(Nc1ncnc2sc3c(c12)CCC3)c1ccco1`
Completion: 5.6 min

Prompt: Also `O=[S+]([O-])(Nc1nccs1)c1ccc(NCc2cc(Cl)cc(Br)c2O)cc1` ?
Completion: 12 min

Prompt: Also `Cc1cccc(C(=O)Nc2ccc(N3CCC(N4CCCCC4)CC3)c(C(=O)O)c2)c1` ?
Completion: > 30 min

Prompt: Also `CCn1nnnc1Sc1ncnc2scc(-c3ccc(C)cc3)c12` ?
Completion: 1.4 min

* * *

Recorded half-life values for a group of molecules are listed next.
Conditions: rat; liver microsomes; pH 7.4; 15.0 min; 1.0 µM
// units = min; emit number, no label

Some molecules with recorded half-life:
INSERT INTO measurements (molecule, value) VALUES
  ('Cc1cnc(-c2ccccc2C(F)F)nc1NCc1ccc(-n2ccnn2)cc1', 21),
  ('COc1ccccc1Nc1ccnc(N2CCN(C(=O)c3ccc(F)cc3)CC2)n1', 11.2),
  ('O=C(Nc1cccc(C(F)(F)F)c1)Nc1cc(S(=O)(=O)NC2CC2)ccc1-c1ccsc1', 5.65),
  ('Cc1cc(S(=O)(=O)Nc2cnccc2C(=O)Nc2nc(-c3ccccc3)cs2)c(C)o1', 8.55),
  ('CCOc1ccc(CCNC(=O)c2cc3sccc3n2CCN2CCOCC2)cc1OCC', 1.6);

Prompt: Give its half-life value. Item: Nc1nc2c(s1)C(c1cccc(Cl)c1Cl)CC(=O)N2 (configuration not stated)
Completion: 26

Prompt: Also `Cc1onc(-c2ccc(F)cc2)c1COc1ccc(C(=O)N2CCS(=O)(=O)CC2)cn1` ?
Completion: 9.64

Prompt: Also `Cc1ccc(S(=O)(=O)Nc2ccccc2C(=O)Nc2nc(-c3ccccc3)co2)cc1` ?
Completion: 3.9

Prompt: Also `Fc1ccc(Cl)cc1-c1nc(Nc2ccncc2)c2nccnc2n1` ?
Completion: 15.9

Prompt: Also `CCOc1ccc(CCNC(=O)c2cc3sccc3n2C)cc1OCC` ?
Completion: 1.6

Prompt: Also `CCCN1CNc2c(c(=O)[nH]c(=S)n2CCc2cccc(Cl)c2Cl)C1` ?
Completion: 2.47

Prompt: Also `Cc1ccc(NS(=O)(=O)c2cc3c(cc2N[C@H](C)CO)NC(=O)CC3)cc1C` ?
Completion: 1.71

Prompt: Also `Cc1cc(NC(=S)N2CCN(c3cccc(C(F)(F)F)c3)CC2)nc2ccccc12` ?
Completion: 26

Prompt: Also `CC(C=CC(=O)NO)=C[C@@H](C)C(=O)c1ccc(N(C)C)cc1` ?
Completion: 4.06

Prompt: Also COc1ccc(C(=O)NC2CCCc3c2[nH]c2ccccc32)cc1OC (configuration not stated) ?
Completion: 24.6

Prompt: Also `Brc1ccc(-c2csc(N3CCNCC3)n2)cc1` ?
Completion: 3.31

Prompt: Also `CCCC1=Nc2cc(C(=O)NC3CCCC3)ccc2Sc2ccc(C)cc21` ?
Completion: 1.41

Prompt: Also `CC[C@H](CO)Nc1nc(NCc2ccccc2)c2ncn(C(C)C)c2n1` ?
Completion: 5.51

Prompt: Also `COc1ccc2c(c1)N(C[C@H](C)CN(C)C)c1ccccc1S2` ?
Completion: 2.07

Prompt: Also `CC(=O)c1ccc(N2CCN(S(=O)(=O)c3cc4c(cc3Cl)NC(=O)C4)CC2)cc1` ?
Completion: 28

Prompt: Also `COc1ccc(S(=O)(=O)N(C(=O)C(C)C)c2ccc3oc(=O)sc3c2)cc1` ?
Completion: 2.2

Prompt: Also `COc1ccc(NC(=O)c2[nH]c(C)c(C(C)=O)c2C)cc1S(=O)(=O)N1CCCCC1` ?
Completion: 6

Prompt: Also `Cc1ccccc1Nc1c(-c2ccccc2O)nc2sccn12` ?
Completion: 2.71

Prompt: Also CC1CCc2cc(F)ccc2N1C(=O)CSc1nnc2c(n1)[nH]c1ccccc12 (configuration not stated) ?
Completion: 2.02
